System: cancer cell lines from the cancer cell line encyclopedia (CCLE)
Test: Cell line profiling (CLiP) proliferation experiment
Type: cell-based
Details: Homo sapiens, HCC1419, cell line HCC1419, breast; read-out: Crossing Point
Experimental: Compound profiling experiment and data analysis was performed as previously described. Data was imported and plotted using the Tibco Spotfire DXP application. Lines were categorized as sensitive, intermediate and refractory as follows: Amax<-40 & Inflection Point <2 ~ Sensitive, Amax>-20 & Inflection Point >10 ~ Refractory, all else were called Intermediate. Cancer Cell line HG-U133 Plus 2 data was processed and normalized as described. […]
Quantity kind: IC50 (µM)

| Smiles code | Numeric readout |
| --- | --- |
| CC(C)[C@@]12C[C@@H](O)[C@@](C)(O1)[C@@H]1CC[C@@H](C)[C@H]1[C@@H]2OC(=O)/C=C/c1ccccc1 | 25.1 |

###

System: cancer cell lines from the cancer cell line encyclopedia (CCLE)
Assay: Cell line profiling (CLiP) proliferation experiment
Assay type: cell-based
Conditions: cell line Hs 939.T; read-out: Crossing Point
pIC50: −log10 of the molar value.

| Compound | pIC50 |
| --- | --- |
| CC(C)[C@@]12C[C@@H](O)[C@@](C)(O1)[C@@H]1CC[C@@H](C)[C@H]1[C@@H]2OC(=O)/C=C/c1ccccc1 [Englerin B] | < 4.52 |

###

Test system: cancer cell lines from the cancer cell line encyclopedia (CCLE)
Experiment: Cell line profiling (CLiP) proliferation experiment
Type: cell-based
Details: Homo sapiens, KARPAS-299, KARPAS-299; read-out: Crossing Point
pIC50: −log10 of the molar value.
Quantity kind: pIC50

| Smiles code | Study system | Quantity kind | Numeric readout |
| --- | --- | --- | --- |
| CC(C)[C@@]12C[C@@H](O)[C@@](C)(O1)[C@@H]1CC[C@@H](C)[C@H]1[C@@H]2OC(=O)/C=C/c1ccccc1 | cancer cell lines from the cancer cell line encyclopedia (CCLE) | pIC50 | 4.88 |

###

Tested on: cancer cell lines from the cancer cell line encyclopedia (CCLE)
Test: Cell line profiling (CLiP) proliferation experiment
Assay type: cell-based
Details: Homo sapiens, SCaBER, cell line SCaBER, urinary_tract, transitional_cell_carcinoma; read-out: Crossing Point

| Smiles code | IC50 |
| --- | --- |
| CC(C)[C@@]12C[C@@H](O)[C@@](C)(O1)[C@@H]1CC[C@@H](C)[C@H]1[C@@H]2OC(=O)/C=C/c1ccccc1 | > 30 µM |

###

System: cancer cell lines from the cancer cell line encyclopedia (CCLE)
Assay: Cell line profiling (CLiP) proliferation experiment
Format: cell-based
Details: Homo sapiens, UMUC3, UM-UC-3 cell line; urinary_tract; transitional_cell_carcinoma; read-out: Crossing Point
pIC50: −log10 of the molar value.

| Smiles code | Study system | pIC50 |
| --- | --- | --- |
| CC(C)[C@@]12C[C@@H](O)[C@@](C)(O1)[C@@H]1CC[C@@H](C)[C@H]1[C@@H]2OC(=O)/C=C/c1ccccc1 | cancer cell lines from the cancer cell line encyclopedia (CCLE) | 4.59 |

###

System: cancer cell lines from the cancer cell line encyclopedia (CCLE)
Assay: Cell line profiling (CLiP) proliferation experiment
Type: cell-based
Settings: Homo sapiens, OC-314, OC 314 cells; read-out: Inflection Point
Description: Compound profiling experiment and data analysis was performed as previously described. Data was imported and plotted using the Tibco Spotfire DXP application. Lines were categorized as sensitive, intermediate and refractory as follows: Amax<-40 & Inflection Point <2 ~ Sensitive, Amax>-20 & Inflection Point >10 ~ Refractory, all else were called Intermediate. Cancer Cell line HG-U133 Plus 2 data was processed and normalized as described. […]

| Compound | Units label | EC50 |
| --- | --- | --- |
| CC(C)[C@@]12C[C@@H](O)[C@@](C)(O1)[C@@H]1CC[C@@H](C)[C@H]1[C@@H]2OC(=O)/C=C/c1ccccc1 [Englerin B] | µM | 14.9 |
